- ASSAY_SYSTEM: Protein kinase C theta type (Homo sapiens) (UniProt Q04759);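 further: reported figure is the mean percent inhibition of PKC-theta, from the GSK PKIS screen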
- Sequence (Q04759 whole entry, looked up): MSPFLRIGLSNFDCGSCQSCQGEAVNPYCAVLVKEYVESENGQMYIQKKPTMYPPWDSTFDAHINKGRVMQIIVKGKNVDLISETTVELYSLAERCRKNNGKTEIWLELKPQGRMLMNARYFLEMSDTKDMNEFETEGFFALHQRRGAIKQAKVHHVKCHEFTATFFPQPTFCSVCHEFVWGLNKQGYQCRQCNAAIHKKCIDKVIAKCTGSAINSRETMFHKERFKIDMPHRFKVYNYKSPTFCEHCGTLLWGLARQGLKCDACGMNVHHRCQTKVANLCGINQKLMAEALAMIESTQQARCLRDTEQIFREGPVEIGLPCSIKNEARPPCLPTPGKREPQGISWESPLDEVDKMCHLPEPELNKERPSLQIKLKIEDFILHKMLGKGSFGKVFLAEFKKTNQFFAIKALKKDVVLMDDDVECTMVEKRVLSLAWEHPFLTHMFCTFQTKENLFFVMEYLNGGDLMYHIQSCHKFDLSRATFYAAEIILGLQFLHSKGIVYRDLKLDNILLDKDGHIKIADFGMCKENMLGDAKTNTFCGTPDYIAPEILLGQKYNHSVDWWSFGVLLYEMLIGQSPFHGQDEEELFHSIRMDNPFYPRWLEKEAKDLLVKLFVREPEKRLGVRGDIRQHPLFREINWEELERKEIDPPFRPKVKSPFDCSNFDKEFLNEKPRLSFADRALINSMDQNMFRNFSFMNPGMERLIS
- EXPERIMENTAL_CONTEXT: at 0.1 µM
Recorded inhibition values for a group of compounds are listed next.
Give the value in % but do not write % after it.

Below are worked cases with known answers.
Q. Which measured inhibition value corresponds to Nc1nccc(C#Cc2cncnc2Nc2ccc(OCc3cccc(F)c3)c(Cl)c2)n1 ?
A. 2.44

Q. Which measured inhibition value corresponds to CN(C)C(=O)O[C@H]1CN[C@H](C#Cc2cc3ncnc(Nc4ccc(OCc5cccc(F)c5)c(Cl)c4)c3s2)C1 ?
A. 1.43

Q. Which measured inhibition value corresponds to C[C@@H](Oc1cc(-n2cnc3ccc(OCC4CCN(C)CC4)cc32)sc1C(N)=O)c1ccccc1C(F)(F)F ?
A. 2.09

New cases:
Q. Which measured inhibition value corresponds to CN(C)C(=O)O[C@@H]1CN[C@@H](C#Cc2cc3ncnc(Nc4ccc(OCc5cccc(F)c5)c(Cl)c4)c3s2)C1 ?
A. -0.8

###

- ASSAY_SYSTEM: Cyclin-dependent kinase 2 (Homo sapiens) (UniProt P24941);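 further: mean inhibition of CDK2 in complex with cyclin E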
- EXPERIMENTAL_CONTEXT: at 0.1 µM
MEASUREMENT_LABEL: inhibition (%)
Give the value in % but do not write % after it.

Q. Which measured inhibition value corresponds to NS(=O)(=O)c1ccc(N/N=C2\C(=O)Nc3ccc(Cl)cc32)cc1 ?
A. 58.5

Q. Which measured inhibition value corresponds to COc1cc(/C=N/Nc2ncnc3c2cnn3C(C)C)ccc1O ?
A. 6.02

Q. Which measured inhibition value corresponds to Nc1ccc(C#Cc2cncnc2Nc2ccc(OCc3cccc(F)c3)c(Cl)c2)cc1 ?
A. 2.14

Q. Which measured inhibition value corresponds to O=C1Nc2ccccc2/C1=C/Nc1ccc2[nH]c(=O)[nH]c2c1 ?
A. 3.74

Q. Which measured inhibition value corresponds to Cc1ccc(C(=O)NC2CC2)cc1-c1ccc2[nH]ncc2c1 ?
A. -1.68

Q. Which measured inhibition value corresponds to CN(C)C(=O)O[C@H]1CN[C@H](C#Cc2cc3ncnc(Nc4ccc(OCc5cccc(F)c5)c(Cl)c4)c3s2)C1 ?
A. 3.08

New cases:
Q. Which measured inhibition value corresponds to Cc1ccc2c(-c3ccnc(Nc4cccc(C(F)(F)F)c4)n3)c(-c3ccccc3)nn2n1 ?
A. 2.95

Q. Which measured inhibition value corresponds to COC(=O)c1cncc(/C=C/c2c(C)cc(O)cc2C)c1 ?
A. 3.33

Q. Which measured inhibition value corresponds to CS(=O)(=O)CCNCc1nc(-c2ccc3ncnc(Nc4ccc(OCc5cccc(C(F)(F)F)c5)cc4)c3c2)cs1 ?
A. 1.42

Q. Which measured inhibition value corresponds to N#Cc1cccc(Nc2nccc(-c3cnn4ncccc34)n2)c1 ?
A. 82.3

###

- ASSAY_SYSTEM: cGMP-dependent protein kinase 2 (Homo sapiens) (UniProt Q13237);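 further: reported figure is a mean inhibition value against PRKG2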
- Sequence (Q13237 whole entry): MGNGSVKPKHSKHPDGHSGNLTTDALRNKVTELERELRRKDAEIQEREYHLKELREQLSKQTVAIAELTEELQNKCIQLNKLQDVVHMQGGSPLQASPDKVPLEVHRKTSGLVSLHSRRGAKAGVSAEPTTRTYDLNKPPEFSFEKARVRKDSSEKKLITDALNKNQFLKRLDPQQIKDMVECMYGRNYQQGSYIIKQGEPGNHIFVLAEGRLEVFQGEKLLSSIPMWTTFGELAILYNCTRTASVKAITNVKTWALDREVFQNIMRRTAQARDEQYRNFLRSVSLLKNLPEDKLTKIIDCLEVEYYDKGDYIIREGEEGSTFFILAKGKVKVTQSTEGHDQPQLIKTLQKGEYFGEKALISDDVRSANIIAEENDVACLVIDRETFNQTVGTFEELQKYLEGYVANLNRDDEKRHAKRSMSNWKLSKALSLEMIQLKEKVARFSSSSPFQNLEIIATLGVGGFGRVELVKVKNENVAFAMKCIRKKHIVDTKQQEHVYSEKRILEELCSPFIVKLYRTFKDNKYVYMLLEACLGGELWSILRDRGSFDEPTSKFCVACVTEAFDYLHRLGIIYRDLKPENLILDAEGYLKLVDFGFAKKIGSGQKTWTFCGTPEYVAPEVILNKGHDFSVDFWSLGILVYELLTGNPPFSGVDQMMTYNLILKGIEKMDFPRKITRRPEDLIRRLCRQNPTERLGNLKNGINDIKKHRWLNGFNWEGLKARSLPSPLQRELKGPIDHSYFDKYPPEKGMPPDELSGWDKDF
- EXPERIMENTAL_CONTEXT: at 0.1 µM
MEASUREMENT_LABEL: inhibition (%)
Give the value in % but do not write % after it.

Below are worked cases with known answers.
Q. Which measured inhibition value corresponds to CN(C)C(=O)O[C@H]1CN[C@H](C#Cc2cc3ncnc(Nc4ccc(OCc5cccc(F)c5)c(Cl)c4)c3s2)C1 ?
A. -0.06

Q. Which measured inhibition value corresponds to NS(=O)(=O)c1ccc(Nc2cc(-c3cccc(O)c3)n[nH]2)cc1 ?
A. 3.66

Q. Which measured inhibition value corresponds to CCS(=O)(=O)c1ccc(OC)c(Nc2nccc(N(C)c3ccc4c(C)n[nH]c4c3)n2)c1 ?
A. 2.68

Q. Which measured inhibition value corresponds to CN(c1ccc(NC(=O)Nc2ccc(OC(F)(F)F)cc2)cc1)c1ccnc(Nc2cccc(S(N)(=O)=O)c2)n1 ?
A. 0.76

Q. Which measured inhibition value corresponds to CN1CCN(C(=O)c2ccc(NC(=O)Nc3ccc(N(C)c4ccnc(Nc5ccc(CS(C)(=O)=O)cc5)n4)cc3)cc2)CC1 ?
A. 1.26

Q. Which measured inhibition value corresponds to COC(=O)Nc1nc2cc(Oc3ccc(NC(=O)Nc4cccc(Br)c4)cc3)ccc2[nH]1 ?
A. 0.8

New cases:
Q. Which measured inhibition value corresponds to CN(C)CCCn1c(-c2nonc2N)nc2cnccc21 ?
A. 2.51

Q. Which measured inhibition value corresponds to NS(=O)(=O)c1ccc(N/N=C2\C(=O)Nc3ccc(Cl)cc32)cc1 ?
A. 3.85

Q. Which measured inhibition value corresponds to COc1cc2ncn(-c3cc(OCc4ccccc4S(C)(=O)=O)c(C#N)s3)c2cc1OC ?
A. 3.46

Q. Which measured inhibition value corresponds to N#Cc1c(NC(=O)c2ccccc2F)sc2c1CCCC2 ?
A. -1.17

Q. Which measured inhibition value corresponds to COc1cc2ncnc(Nc3ccc4c(cnn4Cc4ccccc4)c3)c2cc1OC ?
A. 1.02

###

Recorded inhibition values for a group of compounds are listed next.
- Tested on: Tyrosine-protein kinase ABL1 (Homo sapiens), P00519 [E255K]
- Sequence (P00519 whole entry E255K): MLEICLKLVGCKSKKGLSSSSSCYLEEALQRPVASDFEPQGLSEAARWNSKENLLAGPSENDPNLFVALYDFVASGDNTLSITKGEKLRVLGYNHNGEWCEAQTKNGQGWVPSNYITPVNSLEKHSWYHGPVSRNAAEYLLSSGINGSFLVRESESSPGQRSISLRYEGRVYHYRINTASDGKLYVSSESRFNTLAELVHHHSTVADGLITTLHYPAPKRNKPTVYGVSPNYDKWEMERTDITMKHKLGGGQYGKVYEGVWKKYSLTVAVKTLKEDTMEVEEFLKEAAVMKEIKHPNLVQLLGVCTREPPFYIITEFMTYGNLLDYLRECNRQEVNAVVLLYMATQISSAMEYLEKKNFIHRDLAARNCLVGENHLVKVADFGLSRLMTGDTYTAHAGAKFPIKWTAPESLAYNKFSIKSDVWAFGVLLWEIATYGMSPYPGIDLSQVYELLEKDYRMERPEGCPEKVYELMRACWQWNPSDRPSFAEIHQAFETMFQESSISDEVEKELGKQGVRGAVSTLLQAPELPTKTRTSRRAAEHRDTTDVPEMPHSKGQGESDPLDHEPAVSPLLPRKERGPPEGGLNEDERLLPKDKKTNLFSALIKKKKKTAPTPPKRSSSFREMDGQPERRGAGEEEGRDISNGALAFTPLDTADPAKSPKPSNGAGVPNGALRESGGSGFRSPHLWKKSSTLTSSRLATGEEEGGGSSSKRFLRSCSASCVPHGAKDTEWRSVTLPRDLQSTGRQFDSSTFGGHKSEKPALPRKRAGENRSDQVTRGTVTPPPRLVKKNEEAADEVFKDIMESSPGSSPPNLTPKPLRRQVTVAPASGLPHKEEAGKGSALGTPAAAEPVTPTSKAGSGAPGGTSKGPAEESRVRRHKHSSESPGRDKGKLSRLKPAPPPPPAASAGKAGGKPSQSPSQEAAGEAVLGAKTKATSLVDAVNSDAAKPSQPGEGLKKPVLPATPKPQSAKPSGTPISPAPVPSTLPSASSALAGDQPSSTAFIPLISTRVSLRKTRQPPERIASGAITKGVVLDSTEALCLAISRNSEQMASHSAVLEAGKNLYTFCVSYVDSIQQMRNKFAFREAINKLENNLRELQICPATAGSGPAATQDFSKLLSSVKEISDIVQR
- EXPERIMENTAL_CONTEXT: at 0.1 µM
Give the value in % but do not write % after it.

Below are worked cases with known answers.
Q. Which measured inhibition value corresponds to CS(=O)(=O)Nc1cccc(-c2ccc3c(NC(=O)C4CC4)n[nH]c3c2)c1 ?
A. 1.67

Q. Which measured inhibition value corresponds to Cc1ccc(C(=O)NC2CC2)cc1-c1ccc2[nH]ncc2c1 ?
A. -0.87

Q. Which measured inhibition value corresponds to Nc1nccc(C#Cc2cncnc2Nc2ccc(OCc3cccc(F)c3)c(Cl)c2)n1 ?
A. 3.67

Q. Which measured inhibition value corresponds to NC(=O)c1cccc(Nc2nccc(Nc3cccc(F)c3)n2)c1 ?
A. 7.73

Q. Which measured inhibition value corresponds to NS(=O)(=O)c1ccc(-c2cc3ccncc3cc2OCc2ccccc2)cc1 ?
A. 2.82

New cases:
Q. Which measured inhibition value corresponds to Cc1ccc(NC(=O)CC2CC2)cc1-c1ccc(C(=O)NCC2CC2)cc1 ?
A. 4.24

Q. Which measured inhibition value corresponds to CCn1c(-c2nonc2N)nc2ccc(F)cc21 ?
A. 2.57

Q. Which measured inhibition value corresponds to Cc1cc(O)cc(C)c1/C=C/c1cncc(C(=O)N(C)C)c1 ?
A. 2.42

Q. Which measured inhibition value corresponds to C[C@@H](Oc1cc(-n2cnc3ccc(OC[C@@H](O)CO)cc32)sc1C(N)=O)c1ccccc1Cl ?
A. 0.24

Q. Which measured inhibition value corresponds to CN(c1ccc(NC(=O)Nc2ccc(OC(F)(F)F)cc2)cc1)c1ccnc(Nc2cccc(S(N)(=O)=O)c2)n1 ?
A. 17.2

###

- ASSAY_SYSTEM: cAMP-dependent protein kinase catalytic subunit alpha (Homo sapiens);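 further: mean percent inhibition of PKA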
- EXPERIMENTAL_CONTEXT: at 1 µM
MEASUREMENT_LABEL: inhibition (%)
Give the value in % but do not write % after it.

Below are worked cases with known answers.
Q. Quick check: inhibition on cAMP-dependent protein kinase catalytic subunit alpha (Homo sapiens), item CN(C)C(=O)O[C@@H]1CN[C@@H](C#Cc2cc3ncnc(Nc4ccc(OCc5cccc(F)c5)c(Cl)c4)c3s2)C1 ?
A. 1.2

Q. Quick check: inhibition on cAMP-dependent protein kinase catalytic subunit alpha (Homo sapiens), item COc1cc2ncn(-c3cc(OCc4ccccc4S(C)(=O)=O)c(C#N)s3)c2cc1OC ?
A. 3.77

Q. Quick check: inhibition on cAMP-dependent protein kinase catalytic subunit alpha (Homo sapiens), item CS(=O)(=O)CCNCc1nc(-c2ccc3ncnc(Nc4ccc(OCc5cccc(C(F)(F)F)c5)cc4)c3c2)cs1 ?
A. 0.51

New cases:
Q. Quick check: inhibition on cAMP-dependent protein kinase catalytic subunit alpha (Homo sapiens), item CN(C)CCCn1c(-c2nonc2N)nc2cnccc21 ?
A. 3.18

Q. Quick check: inhibition on cAMP-dependent protein kinase catalytic subunit alpha (Homo sapiens), item COc1cccc(-n2nc(C)c3c(N/N=C(\C)c4ccncc4)ncnc32)c1 ?
A. -0.34

Q. Quick check: inhibition on cAMP-dependent protein kinase catalytic subunit alpha (Homo sapiens), item NS(=O)(=O)c1ccc(-c2cc3ccncc3cc2OCc2ccccc2)cc1 ?
A. 0.52

Q. Quick check: inhibition on cAMP-dependent protein kinase catalytic subunit alpha (Homo sapiens), item CN(C)C(=O)O[C@H]1CN[C@H](C#Cc2cc3ncnc(Nc4ccc(OCc5cccc(F)c5)c(Cl)c4)c3s2)C1 ?
A. 4.73

Q. Quick check: inhibition on cAMP-dependent protein kinase catalytic subunit alpha (Homo sapiens), item C[C@@H](Oc1cc(-n2cnc3ccc(OCC4CCN(C)CC4)cc32)sc1C(N)=O)c1ccccc1C(F)(F)F ?
A. 1.15

Q. Quick check: inhibition on cAMP-dependent protein kinase catalytic subunit alpha (Homo sapiens), item Nc1ccc(C#Cc2cncnc2Nc2ccc(OCc3cccc(F)c3)c(Cl)c2)cc1 ?
A. 2.77

###

- Tested on: Platelet-derived growth factor receptor alpha (Homo sapiens), P16234 [V561D]
- Sequence (P16234 whole entry V561D): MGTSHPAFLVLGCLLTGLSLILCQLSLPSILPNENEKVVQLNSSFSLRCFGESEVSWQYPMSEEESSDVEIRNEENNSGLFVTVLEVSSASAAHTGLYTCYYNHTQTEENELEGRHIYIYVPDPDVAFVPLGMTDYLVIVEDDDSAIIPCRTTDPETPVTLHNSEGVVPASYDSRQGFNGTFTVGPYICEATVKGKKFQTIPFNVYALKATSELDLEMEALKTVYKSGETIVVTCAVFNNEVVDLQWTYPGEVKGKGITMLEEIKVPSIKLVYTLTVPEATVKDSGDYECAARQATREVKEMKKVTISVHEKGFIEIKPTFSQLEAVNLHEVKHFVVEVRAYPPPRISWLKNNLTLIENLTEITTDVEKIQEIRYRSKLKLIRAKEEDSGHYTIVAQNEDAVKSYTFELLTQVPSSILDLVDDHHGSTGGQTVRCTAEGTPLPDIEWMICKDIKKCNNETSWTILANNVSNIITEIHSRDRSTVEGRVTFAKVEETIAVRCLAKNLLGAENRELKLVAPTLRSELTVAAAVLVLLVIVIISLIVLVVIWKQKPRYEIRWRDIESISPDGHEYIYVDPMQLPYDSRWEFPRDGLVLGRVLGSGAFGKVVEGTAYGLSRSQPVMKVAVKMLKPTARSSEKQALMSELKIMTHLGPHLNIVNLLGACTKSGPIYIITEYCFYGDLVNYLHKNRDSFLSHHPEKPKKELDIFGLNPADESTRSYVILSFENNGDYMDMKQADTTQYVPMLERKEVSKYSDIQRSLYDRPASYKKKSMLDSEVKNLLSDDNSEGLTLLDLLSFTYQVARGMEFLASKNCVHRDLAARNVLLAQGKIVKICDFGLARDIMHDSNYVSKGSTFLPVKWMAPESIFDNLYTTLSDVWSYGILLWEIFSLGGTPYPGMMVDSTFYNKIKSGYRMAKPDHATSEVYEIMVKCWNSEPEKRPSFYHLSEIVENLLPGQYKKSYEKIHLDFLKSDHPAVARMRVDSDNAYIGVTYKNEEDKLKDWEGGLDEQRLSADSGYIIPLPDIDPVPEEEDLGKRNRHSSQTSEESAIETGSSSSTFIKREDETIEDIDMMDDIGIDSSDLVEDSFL
- EXPERIMENTAL_CONTEXT: at 1 µM
MEASUREMENT_LABEL: inhibition (%)
Give the value in % but do not write % after it.

Q. Quick check: inhibition on Platelet-derived growth factor receptor alpha (Homo sapiens), P16234 [V561D], item C[C@@H](Oc1cc(-n2cnc3ccc(OCC4CCN(C)CC4)cc32)sc1C(N)=O)c1ccccc1C(F)(F)F ?
A. 66.2

Q. Quick check: inhibition on Platelet-derived growth factor receptor alpha (Homo sapiens), P16234 [V561D], item Cc1ccc(C(=O)NC2CC2)cc1-c1ccc2[nH]ncc2c1 ?
A. 13.8

Q. Quick check: inhibition on Platelet-derived growth factor receptor alpha (Homo sapiens), P16234 [V561D], item N#Cc1c(NC(=O)c2ccccc2F)sc2c1CCCC2 ?
A. 3.24

Q. Quick check: inhibition on Platelet-derived growth factor receptor alpha (Homo sapiens), P16234 [V561D], item O=S(=O)(CCOCc1ccc(-c2ccc3ncnc(Nc4ccc(OCc5cccc(F)c5)c(Cl)c4)c3c2)o1)c1ccccc1 ?
A. 3.68
